Where do these numbers come from? They come from PubChem BioAssay (NCI).

Measured TGI accompanies every entry in the list below.
System: MCF7 breast
method_description: NCI tumour cell line growth inhibition, 48 h
measurement_label: TGI

>>> recorded_measurement("CC1CC[C@@]2(OC1)O[C@H]1[C@H](O)[C@H]3[C@@H]4CC[C@H]5C[C@@H](OC6OC(CO)C(OC7OC(CO)C(O)C(OC8OCC(O)C(O)C8O)C7OC7OC(CO)C(O)C(O)C7OC7OC(CO)C(O)C(O)C7O)C(O)C6O)[C@H](O)C[C@]5(C)[C@H]4CC[C@]3(C)[C@H]1[C@@H]2C (stereo partly drawn)")
"7.71 µM"
>>> recorded_measurement("CN1/C(=C/C=C/C=C/C=C2C(=O)c3ccccc3C2=O)C(C)(C)c2ccccc21")
"> 100 µM"
>>> recorded_measurement("COC(=O)c1c2c(c(C)[n+]([O-])c1C)C(=O)C=C(NCc1ccccc1)C2=O")
"0.892 µM"
>>> recorded_measurement("CN(C)Cc1ccc(-c2cc3onc(-c4ccccc4)c3c(=O)n2C)cc1")
"> 100 µM"
>>> recorded_measurement("CC1C(NNC(N)=O)Oc2cc3c(cc2C1c1ccccc1O)OCO3 (stereo not drawn)")
"> 100 µM"
>>> recorded_measurement("COc1cc2ccc(C(=O)NCCCNC(=O)c3ccc4cc(OC)c(OC)cc4c3)cc2cc1OC")
"> 100 µM"
>>> recorded_measurement("O=C(c1ccccc1)c1ccc2nc(-c3c(Cl)c(Cl)c(Cl)c(Cl)c3-c3nnc(-c4ccccc4)o3)[nH]c2c1")
"> 100 µM"
>>> recorded_measurement("COc1ccc(C#Cn2nnc3ccccc32)cc1")
"> 100 µM"

* * *

Measured TGI accompanies every entry in the list below.
Test system: A549 NSCLC
method_description: NCI tumour cell line growth inhibition, 48 h
measurement_label: TGI

>>> recorded_measurement("CC(C)C1CO[C@]2(C)CCC(=O)N12 (stereo not given in full)")
"> 100 µM"
>>> recorded_measurement("Fc1ccc(-c2ncn(C3CCNCC3)c2-c2ccnc(Oc3ccc4c(c3)OCO4)n2)cc1")
"> 25 µM"
>>> recorded_measurement("O=C(Nc1sccc1S(=O)(=O)c1ccc(Cl)cc1)c1ccc(F)cc1F")
"> 100 µM"
>>> recorded_measurement("O=C(O)CSc1ccccc1C(=O)O")
"> 100 µM"
>>> recorded_measurement("O=C(Oc1cccc(Cl)c1)c1ccccc1Nc1ccnc(C(F)(F)F)c1")
"55.1 µM"
>>> recorded_measurement("ClC(Cl)=C(Cl)C1(Cl)CC1COCc1ccccc1 (stereo not given)")
"> 100 µM"
>>> recorded_measurement("C1=NCCNCCNCCN=Cc2ccc(cc2)OCc2cccc(n2)COc2ccc1cc2")
"> 100 µM"
>>> recorded_measurement("COc1ccc(C(=O)Cn2c(C(=O)c3ccccc3)nc3ccccc32)cc1")
"> 100 µM"
>>> recorded_measurement("Cc1nc2cc(F)c(F)cc2[nH]c1=O")
"> 100 µM"
>>> recorded_measurement("O=C(O)C(Cc1cnc[nH]1)N1C(=O)c2ccccc2C1=O (stereo not given)")
"> 100 µM"
>>> recorded_measurement("CCCC[C@@H](C)/C=C1\\CN2CCC[C@H]2[C@@](C)(OCc2ccccc2)[C@@H]1O")
"> 50 µM"
>>> recorded_measurement("COc1ccc(-n2c(=O)c3[nH]c(=S)[nH]c3n(-c3ccc(OC)cc3)c2=S)cc1")
"> 100 µM"
>>> recorded_measurement("CC1CC[C@@]2(OC1)O[C@H]1[C@H](O)[C@H]3[C@@H]4CC[C@H]5C[C@@H](OC6OC(CO)C(OC7OC(CO)C(O)C(OC8OCC(O)C(O)C8O)C7OC7OC(CO)C(O)C(O)C7OC7OC(CO)C(O)C(O)C7O)C(O)C6O)[C@H](O)C[C@]5(C)[C@H]4CC[C@]3(C)[C@H]1[C@@H]2C (stereo not given in full)")
"> 10 µM"
>>> recorded_measurement("C[C@H](c1ccc(Cl)cc1[N+](=O)[O-])N1C(=O)c2cc(I)ccc2N=C(OCCCN2CCN(C)CC2)[C@@H]1c1ccc(Cl)cc1")
"3.14 µM"
>>> recorded_measurement("COc1ccccc1N=Nc1c(-c2ccccc2)nn(C(=O)CC(=O)Nc2cccc(C)c2)c1-c1ccccc1")
"> 100 µM"
